Tested on: TA98, TA1535, TA1537, TA1538, TA100 and W2P2uvr
assayText: Ames Test (in the presence of S9)
Assay type: cell-based, Salmonella typhimurium
reportedMetric: Ames Test result

These recorded examples may help you get a feel for the data.
chemSmiles: Cc1cc(N=Nc2c(S(=O)(=O)O)cc3cc(S(=O)(=O)O)cc(NC(=O)c4cccc(Cl)c4Cl)c3c2O)c(C)cc1N=Nc1c(S(=O)(=O)O)cc2cc(S(=O)(=O)O)cc(NC(=O)c3ccc(Cl)cc3Cl)c2c1O
Ames Test result: Negative

chemSmiles: COc1cc(N=Nc2c(S(=O)(=O)O)cc3cc(S(=O)(=O)O)cc(NC(=O)c4cc(Cl)cc(Cl)c4)c3c2O)c(OC)cc1N=Nc1c(S(=O)(=O)O)cc2cc(S(=O)(=O)O)cc(NC(=O)Cc3ccccc3)c2c1O
Ames Test result: Positive

chemSmiles: COc1cc(N=Nc2c(S(=O)(=O)O)cc3cc(S(=O)(=O)O)cc(NC(=O)c4ccc(Cl)cc4Cl)c3c2O)c(OC)cc1N=Nc1c(S(=O)(=O)O)cc2cc(S(=O)(=O)O)cc(NC(=O)c3ccc(Cl)cc3Cl)c2c1O
Ames Test result: Positive

chemSmiles: COc1cc(N=Nc2c(S(=O)(=O)O)cc3cc(S(=O)(=O)O)cc(NC(=O)c4cccc5ccccc45)c3c2O)c(OC)cc1N=Nc1ccc2cc(S(=O)(=O)O)cc(NC(=O)c3ccccc3)c2c1O
Ames Test result: Negative

Query :: Could you share what Ames Test result was measured for `COc1cc(N=Nc2c(S(=O)(=O)O)cc3cc(S(=O)(=O)O)cc(NC(=O)c4cccc(Cl)c4Cl)c3c2O)c(OC)cc1N=Nc1c(S(=O)(=O)O)cc2cc(S(=O)(=O)O)cc(NC(=O)c3ccc(Cl)cc3Cl)c2c1O` , tested on TA98, TA1535, TA1537, TA1538, TA100 and W2P2uvr?
Result :: Negative

Query :: How about `COc1cc(N=Nc2c(O)ccc3ccc(S(=O)(=O)O)cc23)c(OC)cc1N=Nc1c(S(=O)(=O)O)cc2cc(S(=O)(=O)O)cc(NC(=O)c3ccc(C#N)cc3)c2c1O` ?
Result :: Negative
